molecular target: Nanoluciferase-BRD9 fusion protein (3×FLAG-NLuc-BRD9) in SYO-1 cells (Homo sapiens (Human)); test: SYO1 BRD9 NanoLuc degradation assay; format: cell-based; conditions: SYO-1 cells expressing 3×FLAG-NLuc-BRD9, 6 hours incubation, top dose 1 μM
pIC50: −log10 of the molar value.
Recorded pIC50 by entry
ATTRIBUTE MEASURED: pIC50

COMPOUND	DATA VALUE
COc1cc(-c2cn(C)c(=O)c3c2CCN(C(=O)NCCCN2CCC4(CCN4c4ccc5c(c4)C(=O)N(C4CCC(=O)NC4=O)C5=O)C2)C3)cc(OC)c1CN(C)C (stereo not drawn) [Compound D261]	7.00 to 8.00
CNC(=O)N1Cc2c(c(-c3cc(OC)c(CN4CCN(CCC5CCN(c6ccc7c(c6)C(=O)N(C6CCC(=O)NC6=O)C7=O)CC5)CC4)c(OC)c3)cn(C)c2=O)CC1C (stereo not drawn) [Compound D41]	> 8.00
COc1cc(-c2cn(C)c(=O)c3c2CCN(C(=O)NCCN2CC4(CCN(c5ccc6c(c5)C(=O)N(C5CCC(=O)NC5=O)C6=O)CC4)C2)C3)cc(OC)c1CN(C)C (stereo not drawn) [Compound D191]	6.00 to 7.00

###

biological target: Nanoluciferase-BRD9 fusion protein (3×FLAG-NLuc-BRD9) in SYO-1 cells (Homo sapiens (Human), UniProt Q9H8M2); test: SYO1 BRD9 NanoLuc degradation assay; type: cell-based; conditions: SYO-1 cells expressing 3×FLAG-NLuc-BRD9, 6 hours incubation, top dose 1 μM
Sequence (Q9H8M2 whole entry, the tested form may be a part): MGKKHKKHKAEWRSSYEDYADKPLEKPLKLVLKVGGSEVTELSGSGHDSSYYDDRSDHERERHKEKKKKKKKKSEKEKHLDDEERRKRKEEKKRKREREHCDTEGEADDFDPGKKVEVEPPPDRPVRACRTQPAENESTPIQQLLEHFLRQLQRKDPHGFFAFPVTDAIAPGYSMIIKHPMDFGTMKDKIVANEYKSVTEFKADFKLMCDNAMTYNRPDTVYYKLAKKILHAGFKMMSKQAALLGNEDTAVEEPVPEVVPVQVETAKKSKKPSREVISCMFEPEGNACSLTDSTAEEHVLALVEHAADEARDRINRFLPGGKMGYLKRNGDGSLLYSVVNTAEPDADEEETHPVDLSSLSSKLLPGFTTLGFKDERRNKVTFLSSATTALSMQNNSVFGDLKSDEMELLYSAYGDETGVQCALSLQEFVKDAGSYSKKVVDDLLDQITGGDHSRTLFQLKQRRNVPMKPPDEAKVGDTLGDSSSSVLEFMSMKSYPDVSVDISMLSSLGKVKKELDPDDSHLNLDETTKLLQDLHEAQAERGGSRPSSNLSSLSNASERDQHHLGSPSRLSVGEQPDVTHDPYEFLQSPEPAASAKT
Some compounds, each annotated with its measured IC50.

COMPOUND	IC50
COc1cc(-c2cn(C)c(=O)c3c2CCN(C(=O)NCC2CC4(C2)CN(CCCCN2CCN(c5ccc6c(c5)C(=O)N(C5CCC(=O)NC5=O)C6=O)CC2)C4)C3)cc(OC)c1CN(C)C (centres unmarked) [Compound D219]	100 to 1000 nM
CNC(=O)N1CCc2c(-c3cc(OC)c(CN4CCN(CCC5CCN(c6ccc7c(c6)C(=O)N(C6CCC(=O)NC6=O)C7=O)CC5)C(C)C4)c(OC)c3)cn(C)c(=O)c2C1 (centres unmarked) [Compound D100]	< 10 nM
CNC(=O)N1CCc2c(-c3cc(OC)c(CN4CC(C#Cc5ccc6c(c5)C(=O)N(C5CCC(=O)NC5=O)C6=O)C4)c(OC)c3)cn(C)c(=O)c2C1 (centres unmarked) [Compound D142]	< 10 nM
CNC(=O)N1CCc2c(-c3cc(OC)c(CN4CC(S(=O)(=O)NCCCCOc5ccc6c(c5)C(=O)N(C5CCC(=O)NC5=O)C6=O)C4)c(OC)c3)cn(C)c(=O)c2C1 (centres unmarked) [Compound D278]	10 to 100 nM
CNC(=O)N1CCc2c(-c3cc(OC)c(CN4CCC(CN(C)C5CCN(c6ccc7c(c6)C(=O)N(C6CCC(=O)NC6=O)C7=O)CC5)CC4)c(OC)c3)cn(C)c(=O)c2C1 (centres unmarked) [Compound D195]	< 10 nM
COc1cc(-c2cn(C)c(=O)c3c2CCN(C(=O)NCCCN2CCC(OC4CCN(c5ccc6c(c5)C(=O)N(C5CCC(=O)NC5=O)C6=O)CC4)C2)C3)cc(OC)c1CN(C)C (centres unmarked) [Compound D225]	10 to 100 nM
CNC(=O)N1CCc2c(-c3cc(OC)c(CN4CCC(CCN5CCN(c6ccc7c(c6)C(=O)N(C6CCC(=O)NC6=O)C7=O)CC5)CC4)c(OC)c3)cn(C3CC3)c(=O)c2C1 (centres unmarked) [Compound D118]	< 10 nM
COc1cc(-c2cn(C)c(=O)c3c2CCN(C(=O)NCCCCCCCCNc2cccc4c2CN(C2CCC(=O)NC2=O)C4=O)C3)cc(OC)c1CN1CCC1 (centres unmarked) [Compound D89]	< 10 nM
CNC(=O)N1CCc2c(-c3cc(OC)c(CN4CCC(CCCN5Cc6cc7c(cc6C5)C(=O)N(C5CCC(=O)NC5=O)C7=O)CC4)c(OC)c3)cn(C)c(=O)c2C1 (centres unmarked) [Compound D178]	< 10 nM
CNC(=O)N1CCc2c(-c3cc(OC)c(CN4CC(CCN5CCN(c6ccc7c(c6)C(=O)N(C6CCC(=O)NC6=O)C7=O)CC5)C4)c(OC)c3)cn(C)c(=O)c2C1 (centres unmarked) [Compound D258]	100 to 1000 nM
COc1cc(-c2cn(C)c(=O)c3c2CCN(C(=O)NCCN2CCC4(CC2)CN(c2ccc5c(c2)C(=O)N(C2CCC(=O)NC2=O)C5=O)C4)C3)cc(OC)c1CN(C)C (centres unmarked) [Compound D212]	10 to 100 nM
COc1cc(-c2cn(C)c(=O)c3c2CCN(C(=O)NCC2CC4(C2)CN(c2ccc5c(c2)C(=O)N(C2CCC(=O)NC2=O)C5=O)C4)C3)cc(OC)c1CN(C)C (centres unmarked) [Compound D115]	< 10 nM
COc1cc(-c2cn(C)c(=O)c3c2CCN(C(=O)NC2C[C@@H]4CN(CCCCN5CCN(c6ccc7c(c6)C(=O)N(C6CCC(=O)NC6=O)C7=O)CC5)C[C@H]24)C3)cc(OC)c1CN(C)C (some centres unmarked) [Compound D247]	100 to 1000 nM
COc1cc(-c2cn(C)c(=O)c3c2CCN(C(=O)NCCN2CCC4C2CN4c2ccc4c(c2)C(=O)N(C2CCC(=O)NC2=O)C4=O)C3)cc(OC)c1CN(C)C (centres unmarked) [Compound D184]	10 to 100 nM
CNC(=O)N1CCc2c(-c3cc(OC)c(CN4CCC(CCN5CCN(c6ccc7c(c6OC)CN(C6CCC(=O)NC6=O)C7=O)CC5)CC4)c(OC)c3)cn(C)c(=O)c2C1 (centres unmarked) [Compound D49]	< 10 nM
CNC(=O)N1CCc2c(-c3cc(OC)c(CN4CCC(CCN5CCN(c6ccc7c(c6)C(=O)N(C6CCC(=O)NC6=O)C7=O)CC5)C(F)(F)C4)c(OC)c3)cn(C)c(=O)c2C1 (centres unmarked) [Compound D155]	< 10 nM
COc1cc(-c2cn(C)c(=O)c3c2CCN(C(=O)NCC2CC4(CCN(CCOc5ccc6c(c5)C(=O)N(C5CCC(=O)NC5=O)C6=O)CC4)C2)C3)cc(OC)c1CN(C)C (centres unmarked) [Compound D267]	10 to 100 nM
COc1cc(-c2cn(C)c(=O)c3c2CCN(C(=O)NCC2CC4CN(c5ccc6c(c5)C(=O)N([C@H]5CCC(=O)NC5=O)C6=O)CC4C2)C3)cc(OC)c1CN(C)C (some centres unmarked) [Compound D122]	10 to 100 nM
CNC(=O)N1CCc2c(-c3cc(OC)c(CN4CCC(CCN5CCC(c6ccc7c(c6)C(=O)N(C6CCC(=O)NC6=O)C7)CC5)CC4)c(OC)c3)cn(C)c(=O)c2C1 (centres unmarked) [Compound D73]	< 10 nM
CNC(=O)N1CCc2c(-c3cc(OC)c(CN4CC5(CC(N6CCN(c7ccc8c(c7)C(=O)N(C7CCC(=O)NC7=O)C8=O)CC6)C5)C4)c(OC)c3)cn(C)c(=O)c2C1 (centres unmarked) [Compound D146]	< 10 nM
